Experiment: BET inhibitor-based combinations targeting novel dependencies in MECOM-rearranged (r) AML: OCI-AML3 cell line (AID 2202232); note: nearly all actives have a fitted effect of over 35% in size
Conditions: CellTiter-Glo luminescence, 48 h; OCI-AML3 viability; series mostly up to 46 µM
Inconclusive results are not listed. Calls of active or inactive are those of the source. Calls come from the whole dose curve; as a rule, active = well fitted inhibition curve with a large enough effect; inconclusive = small, poorly fitted or top-dose-only effect; inactive = no such curve, though single readings can be large or run the other way.
Your reply should match one of these outcome classes. active, inactive

Consider the worked cases shown below.
# smilesString, class
rows = [
    ("CC[C@H]1OC(=O)[C@H](C)C(=O)[C@H](C)[C@@H](O[C@H]2O[C@H](C)C[C@H](N(C)C)[C@H]2O)[C@](C)(OC)C[C@@H](C)C(=O)[C@H](C)[C@H]2N(CCCCn3cnc(-c4cccnc4)c3)C(=O)O[C@]12C", "inactive"),
    ("COc1cc(-c2cn(C)c(=O)c3cnccc23)cc(OC)c1CN(C)C", "active"),
    ("CC(C)(O)[C@H]1CC[C@@](C)([C@H]2[C@@H](O)C[C@@]3(C)[C@@H]4C[C@H](O[C@@H]5O[C@H](CO)[C@@H](O)[C@H](O)[C@H]5O)[C@H]5C(C)(C)[C@@H](O[C@@H]6OC[C@@H](O)[C@H](O)[C@H]6O)CC[C@@]56C[C@@]46CC[C@]23C)O1", "inactive"),
]

Could you kindly confirm the outcome this assay logged for "C=CC(=O)N1CCC(CNc2ncnc(N)c2-c2ccc(Oc3ccccc3)cc2)CC1" ?
active

----------
Biological target: Aldehyde dehydrogenase 1A1 (Homo sapiens) (UniProt P00352)
Assay: qHTS for Inhibitors of the Aldehyde Dehydrogenase Family (ALDH1A1) Confirmatory screens (AID 2061316); note: nearly all actives have a fitted effect of over 65% in size; note: potency is the fitted concentration of half-maximal effect
Settings: ALDH inhibition qHTS; series mostly up to 47.3 µM
Inconclusive results are not listed. Calls of active or inactive are those of the source. The call rests on the fitted dose curve; in most records, active means well fitted inhibition curve with a large enough effect; inconclusive means small, poorly fitted or top-dose-only effect; inactive means no such curve, though single readings can be large or run the other way.
testReadout: Potency

Known Potency results, listed for orientation:
# molecule, testReadout, resultValue
data = [
    ("Cn1nnnc1Sc1ncnc2scc(I)c12", "Potency", "25.2 µM (active)"),
    ("NC(=O)C1CCN(c2nc(-c3ccccc3N)cs2)CC1", "Potency", "12.7 µM (active)"),
    ("O=C(Nc1cncc(Cc2ccccc2)c1)c1ccc(-c2cccc([N+](=O)[O-])c2)o1", "Potency", "3.18 µM (active)"),
    ("NC(=O)C1CCN(c2nc(-c3ccccc3[N+](=O)[O-])cs2)CC1", "Potency", "5.04 µM (active)"),
    ("O=C(Nc1cccc(-c2ccc(N3CCOCC3)nn2)c1)Nc1cccc(C(F)(F)F)c1", "Potency", "inactive"),
    ("O=C(NCC(=O)N1CCN(Cc2ccccc2)CC1)c1cccc(-c2ccsc2)c1", "Potency", "inactive"),
    ("O=C1c2ccccc2NC(c2ccc(-c3cccs3)o2)N1O (stereo unspecified)", "Potency", "6.34 µM (active)"),
    ("CC(=O)N1CCN(c2ccc(NCc3ccccc3)cc2)CC1", "Potency", "10.1 µM (active)"),
    ("CC(=O)c1c(C)n(-c2cccc(Cl)c2)c2ccc(OC(=O)c3ccccc3)cc12", "Potency", "inactive"),
    ("CC(=O)C1CCN(c2ncc(-c3cccc(N(C)C)c3)s2)CC1", "Potency", "10.1 µM (active)"),
]

Proceed to the following item.
Potency for CC(=O)NC(C)c1cc(Cl)c2ccccc2c1O (stereo unspecified) ?
4 µM (active)

----------
Test: BET inhibitor-based combinations targeting novel dependencies in MECOM-rearranged (r) AML: OCI-AML3 cell line (AID 2202232); note: nearly all actives have a fitted effect of over 35% in size; note: potency is the fitted concentration of half-maximal effect
Details: CellTiter-Glo luminescence, 48 h; OCI-AML3 viability; series mostly up to 46 µM
Records with an inconclusive call do not appear. Active and inactive are the calls of the source. Calls come from the whole dose curve; as a rule, active = well fitted inhibition curve with a large enough effect; inconclusive = small, poorly fitted or top-dose-only effect; inactive = no such curve, though single readings can be large or run the other way.
testReadout: Potency

Guide cases for Potency, answers given:
# compound, Potency
data = [
    ("COc1ccc(-c2oc3ncnc(N)c3c2-c2ccc(NC(=O)Nc3cc(C(F)(F)F)ccc3F)cc2)cc1", "10.5 µM (active)"),
    ("CNCc1ccc(C)c(NC(=O)c2ccc(Nc3nc(-c4ccccc4)c4ccccc4n3)cc2)c1", "16.6 µM (active)"),
    ("CNS(=O)(=O)c1ccc2c(c1)/C(=C/c1[nH]c3c(c1CCCN1CCN(C)CC1)CCCC3)C(=O)N2", "18.6 µM (active)"),
    ("COc1ccc(-c2ccc3ncc4c(c3c2)n(-c2ccc(N3CCNCC3)c(C(F)(F)F)c2)c(=O)n4C)cn1", "0.235 µM (active)"),
]

Give the measured Potency of "CC(C)(CO)n1cc(C(=O)c2cncc(NC(=O)Cc3ccc(Cl)cn3)c2)c2cnc(N)nc21" .
inactive

Input "CCCc1cc(C(=O)N[C@H](Cc2ccc(-c3cccc(OC(F)(F)F)c3)nc2)C(=O)N[C@@H]2CCNC2)sc1C"
20.9 µM (active)

Input "Cc1cnc(NC(=O)Nc2cc(Br)c(C)cc2OC[C@@H]2CNCCO2)cn1"
3.72 µM (active)

Now the compound "CCCNC(=O)c1cn2ncnc(Nc3cc(C(=O)NC4CC4)ccc3C)c2c1C"
inactive

Continue with "CC(C)(C)NC(=O)c1cncn1C1CCN(c2ccc(-c3nnc(C(F)(F)F)o3)cn2)CC1"
1.05 µM (active)

Same question for "CC(C)(O)c1coc(S(=O)(=O)NC(=O)Nc2c3c(cc4c2CCC4)CCC3)c1" please.
inactive

Param item: "O=C1CC[C@H](N2Cc3c(OCc4ccc(CN5CCOCC5)cc4)cccc3C2=O)C(=O)N1"
inactive

Would you mind doing "Nc1cc(COc2c(Cl)cc(C[C@H](N)C(=O)O)cc2Cl)c2oc(-c3ccccc3)nc2c1" as well?
13.2 µM (active)

And then "NS(=O)(=O)Oc1ccc2c3c(c(=O)oc2c1)CCCCC3" , what is it?
inactive

What would you report for "COc1ccc(OC)c(-c2nnc3ccc(-c4ccc(OC)c(O[C@@H]5CCOC5)c4)nn23)c1" ?
4.17 µM (active)

Entry "COc1cc(C(N)=O)ccc1NC(=O)[C@@H]1N[C@@H](CC(C)(C)C)[C@@]2(C(=O)Nc3cc(Cl)ccc32)[C@H]1c1cccc(Cl)c1F" please
0.934 µM (active)

// repeat for "CCC(=O)NC[C@H](Cc1ccc(OCCc2nc(-c3ccccc3)oc2C)cc1)N/C(C)=C\C(=O)c1ccc(C(F)(F)F)cc1" and report
20.9 µM (active)

Further, for "Cc1ccc(Nc2ncc3c(n2)N(C)C(=O)N(c2cc(NC(=O)c4cccc(C(F)(F)F)c4)ccc2C)C3)cn1" ?
0.263 µM (active)

Again, but for "Cc1cc(O[C@@H](CCC(F)(F)F)c2ccc(C(=O)NCCC(=O)O)cc2)cc(C)c1-c1ccc(C(C)(C)C)cc1"
20.9 µM (active)

Again, but for COc1ncc(Nc2ncc(C(C)N3CCN(S(C)(=O)=O)CC3)cc2-c2nc(C)nc(N)n2)cc1F (stereo unspecified)
0.662 µM (active)

Queued: "Cc1[nH]cnc1CN1CCN(C(=O)N[C@@H](CC(C)C)C(=O)O)[C@@H](Cc2ccccc2)C1=O"
6.61 µM (active)

One more compound: "CN1CCN(C(=O)c2ccc(-c3ccc4c(C=O)c(O)ccc4c3)s2)CC1"
26.3 µM (active)

Proceed to "COc1ccc(-c2ccc3c(N4CCOC[C@@H]4C)nc(N4CCOC[C@@H]4C)nc3n2)cc1CO"
0.148 µM (active)

----------
Assay: BET inhibitor-based combinations targeting novel dependencies in MECOM-rearranged (r) AML: HNT-34 cell line (AID 2202234); note: nearly all actives have a fitted effect of over 35% in size
Conditions: HNT-34 AML viability, CellTiter-Glo luminescence, 48 h; series mostly up to 46 µM
Records with an inconclusive call do not appear. Calls of active or inactive are those of the source. The call rests on the fitted dose curve; in most records, active means well fitted inhibition curve with a large enough effect; inconclusive means small, poorly fitted or top-dose-only effect; inactive means no such curve, though single readings can be large or run the other way.
Parameter call: string, one of active, inactive

Below are worked cases with known answers.
# molecule, class
records = [
    ("C[C@]12CCC3[C@@H](CC[C@H]4NC(=O)C=C[C@]34C)[C@@H]1CC[C@@H]2C(=O)Nc1cc(C(F)(F)F)ccc1C(F)(F)F (stereo not given in full)", "inactive"),
    ("CCn1c(=O)c2c(nc(/C=C/c3ccc(OC)c(OC)c3)n2C)n(CC)c1=O", "inactive"),
    ("COc1ccnc(CS(=O)c2nc3ccc(OC(F)F)cc3[nH]2)c1OC (stereo not given)", "inactive"),
    ("Cc1ccc(F)c(NC(=O)Nc2ccc(-c3cccc4[nH]nc(N)c34)cc2)c1", "active"),
    ("O=C(/C=C\\n1cnc(-c2cc(C(F)(F)F)cc(C(F)(F)F)c2)n1)N1CC(F)(F)C1", "active"),
    ("Cc1ccc(NC(=O)c2ccc(CN3CC[C@H](N(C)C)C3)c(C(F)(F)F)c2)cc1Nc1nccc(-c2cncnc2)n1", "active"),
    ("CN1CCN(Cc2ccc(Nc3ncc(Cl)c(Nc4ccccc4S(=O)(=O)N(C)C)n3)cc2)CC1", "active"),
    ("CC(C)[C@H]1C(=O)N[C@@H](CCCN=C(N)N)C(=O)NCC(=O)N[C@@H](CC(=O)O)C(=O)N[C@H](Cc2ccccc2)C(=O)N1C", "inactive"),
]

# outcome recorded in this test, key = "C=C1C(=O)O[C@H]2C[C@H](C)C(/C=C/C(C)=O)=CC[C@H]12"
active

Item: "O=C(NO)c1ccc(C2=Nc3ccccc3Oc3ccccc32)cc1"
active
